Molecular target: menin protein (Homo sapiens (Human), UniProt O00255)
Sequence (O00255 whole entry): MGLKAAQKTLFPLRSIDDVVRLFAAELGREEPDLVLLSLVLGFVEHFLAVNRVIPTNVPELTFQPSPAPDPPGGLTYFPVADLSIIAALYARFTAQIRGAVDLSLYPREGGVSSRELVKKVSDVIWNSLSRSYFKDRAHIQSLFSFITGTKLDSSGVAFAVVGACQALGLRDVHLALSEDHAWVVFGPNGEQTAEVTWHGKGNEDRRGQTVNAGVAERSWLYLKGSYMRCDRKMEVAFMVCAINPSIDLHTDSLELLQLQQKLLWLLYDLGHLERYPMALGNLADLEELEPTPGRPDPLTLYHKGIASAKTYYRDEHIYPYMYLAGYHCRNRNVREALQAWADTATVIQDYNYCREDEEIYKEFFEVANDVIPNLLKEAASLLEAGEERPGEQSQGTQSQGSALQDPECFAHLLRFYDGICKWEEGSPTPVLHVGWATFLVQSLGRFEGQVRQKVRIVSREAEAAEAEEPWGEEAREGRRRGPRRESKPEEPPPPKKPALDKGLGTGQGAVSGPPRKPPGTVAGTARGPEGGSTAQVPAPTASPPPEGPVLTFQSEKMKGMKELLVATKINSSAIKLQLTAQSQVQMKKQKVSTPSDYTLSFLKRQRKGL
Assay: biochemical
Format: binding
Settings: FP competitive binding; menin protein 4 nM, FAM-MM2 probe 2 nM; read-out: Menin Binding Affinity IC50
Entries and their IC50
Report the figure in nM without appending any unit label.

Before answering, review these 2 worked examples.
CC(=O)O[C@H]1CCC[C@@H]1C1(C2CCN(CC3CN(c4ccc(S(=O)(=O)c5ccncc5)cc4)C3)CC2)CN(C)Cc2ccccc21 (mixture of isomers): 3
CC(C)CC1(C2CCN(CCCOc3ccc(C#N)cc3)CC2)NCCc2ccccc21 (stereo not drawn): 2100

Any idea what IC50 came out for COC(=O)N[C@H]1CCC[C@@H]1C(C#N)(c1ccccc1)C1CCN(CC2CN(c3ccc(S(=O)(=O)c4ccccc4)cc3)C2)CC1 (mixture of isomers) on menin protein (Homo sapiens (Human), UniProt O00255)? 14

For CC(=O)N[C@H]1CCC[C@@H]1C1(C2CCN(CC3CN(c4ccc(S(=O)(=O)c5cnn(C)c5)cc4)C3)CC2)CNCc2ccccc21 (mixture of isomers) then? 4

For COCCCN1CCC(C2(C3CCCC3)NCCc3ccccc32)CC1 (stereo not drawn) then? 9900

For CNC(=O)N[C@H]1CCC[C@@H]1C(C#N)(c1ccccc1)C1CCN(CC2CN(c3ccc(S(=O)(=O)c4ccncc4)cc3)C2)CC1 (mixture of isomers) then? 9

For COC(=O)N[C@H]1CCC[C@@H]1C(C#N)(c1ccccc1)C1CCN(CC2CN(c3ccc(C(F)(F)F)cc3)C2)CC1 (mixture of isomers) then? 89

For CN1COCN([C@@H]2CCC[C@H]2C(C#N)(c2ccccc2)C2CCN(CC3CN(c4ccc(S(=O)(=O)c5ccncc5)cc4)C3)CC2)C1=O (mixture of isomers) then? 1400

For N#CC(c1ccccc1)(C1CCN(CC2CN(c3ccc(S(=O)(=O)c4ccncc4)cc3)C2)CC1)[C@H]1CCC[C@@H]1OC(=O)N1CCC1 (mixture of isomers) then? 75

For CNC(=O)O[C@H]1CCC[C@@H]1C(C#N)(c1ccccc1)C1CCN(CC2(F)CN(c3ccc(S(=O)(=O)c4cnn(C)c4)cc3)C2)CC1 (mixture of isomers) then? 68

For N#Cc1ccc(OCCCN2CCC(C(CO)(c3ccccc3)C3CCCC3)CC2)cc1 (stereo not drawn) then? 449

For O=S(=O)(c1ccncc1)c1ccc(N2CC(CN3CCC(C4(C5CCCC5)CN(Cc5ccncc5)Cc5ccccc54)CC3)C2)cc1 (stereo not drawn) then? 1100

For CN(C)C(=O)N[C@@H]1CCC[C@H]1C(Cn1ccnc1)(c1ccccc1)C1CCN(CC2CN(c3ccc(S(=O)(=O)c4cnn(C)c4)cc3)C2)CC1 (mixture of isomers) then? 1130

For N#Cc1ccc(OCCCN2CCC(C3(Cc4ccccc4)NCCc4ccccc43)CC2)cc1 (stereo not drawn) then? 4200

For CC(=O)O[C@H]1CCC[C@@H]1C1(C2CCN(CC3CN(c4ccc(S(=O)(=O)c5ccnc(C)c5)cc4)C3)CC2)CN(C)Cc2ccccc21 (mixture of isomers) [compound 201] then? 5

---

Target: menin protein (Homo sapiens (Human), UniProt O00255)
Experiment: biochemical
Format: binding
Details: FP competitive binding; menin protein 4 nM, FAM-MM2 probe 2 nM; read-out: Menin Binding Affinity IC50
MEASURED_METRIC: IC50 (µM)
Report the figure in µM without appending any unit label.

Before answering, review these 3 worked examples.
CCN1Cc2ccccc2C(C2CCCC2)(C2CCN(CC3CN(c4ccc(S(=O)(=O)c5cnn(CC)c5)cc4)C3)CC2)C1 (stereo not shown) [compound 103]: 0.012
CCN1Cc2ccccc2C(C2CCCC2)(C2CCN(CC3CN(c4ccc(S(=O)(=O)c5ccnc(C(F)(F)F)c5)cc4)C3)CC2)C1 (stereo not shown) [compound 157]: 0.016
COC[C@@H]1CCC[C@H]1C(C#N)(c1ccccc1)C1CCN(CC2CN(c3ccc(S(=O)(=O)C4CC4)cc3)C2)CC1 (mixture of isomers) [compound 266]: 4.5

Any idea what IC50 came out for CNC(=O)O[C@H]1CCC[C@@H]1C(Cn1ccnc1)(c1ccccc1)C1CCN(CC2CN(c3ccc(S(=O)(=O)c4ccc(C(=O)O)cc4)cc3)C2)CC1 (mixture of isomers) [compound 363] on menin protein (Homo sapiens (Human), UniProt O00255)? 0.027
